Assay: Oral bioavailability in Sprague-Dawley rat at 10 mg/kg
Format: ADME, organism-based
Conditions: in vivo
Could you label it True if measured bioavailability is 30% or higher, and False otherwise?

Say whether Cn1c(COc2ccc(F)cc2)c2c(=O)n(-c3ccccc3Cl)[nH]c2cc1=O shows bioavailability of 30% or more.
False

Say whether O=c1c2c(COCc3ccccc3)n(Cc3cnccn3)c(=O)cc2[nH]n1-c1ccccc1Cl shows bioavailability of 30% or more.
False

Say whether Cc1c2c(=O)n(-c3ccccc3Cl)[nH]c2cc(=O)n1Cc1ccccn1 shows bioavailability of 30% or more.
True

Say whether COCCn1c(COc2ccc(F)cc2)c2c(=O)n(CCN3CCOCC3)[nH]c2cc1=O shows bioavailability of 30% or more.
False

Say whether O=c1c2c(CN3CCCC3)n(CCc3ccccn3)c(=O)cc2[nH]n1-c1ccc(F)cc1Cl shows bioavailability of 30% or more.
True

Say whether Cc1c2c(=O)n(-c3ccccc3)[nH]c2cc(=O)n1Cc1cccnc1 shows bioavailability of 30% or more.
False

* * *

Experiment: Tmax in Sprague-Dawley rat at 5 mg/kg, sc
Assay type: ADME, organism-based
Parameters: dose 5 mg/kg, route subcutaneous
Settings: in vivo
measurement kind: Tmax (min)
# unit: min | format: bare number

Entry Cc1c2c(=O)n(-c3ccccc3)[nH]c2cc(=O)n1Cc1cccnc1 has what Tmax?
30

* * *

pIC50: −log10 of the molar value.
measurement kind: pIC50

State its pIC50 on Cytochrome P450 2C19 (Homo sapiens): Cc1c2c(=O)n(-c3ccccc3Cl)[nH]c2cc(=O)n1Cc1ccccn1
Sequence (P33261 whole entry): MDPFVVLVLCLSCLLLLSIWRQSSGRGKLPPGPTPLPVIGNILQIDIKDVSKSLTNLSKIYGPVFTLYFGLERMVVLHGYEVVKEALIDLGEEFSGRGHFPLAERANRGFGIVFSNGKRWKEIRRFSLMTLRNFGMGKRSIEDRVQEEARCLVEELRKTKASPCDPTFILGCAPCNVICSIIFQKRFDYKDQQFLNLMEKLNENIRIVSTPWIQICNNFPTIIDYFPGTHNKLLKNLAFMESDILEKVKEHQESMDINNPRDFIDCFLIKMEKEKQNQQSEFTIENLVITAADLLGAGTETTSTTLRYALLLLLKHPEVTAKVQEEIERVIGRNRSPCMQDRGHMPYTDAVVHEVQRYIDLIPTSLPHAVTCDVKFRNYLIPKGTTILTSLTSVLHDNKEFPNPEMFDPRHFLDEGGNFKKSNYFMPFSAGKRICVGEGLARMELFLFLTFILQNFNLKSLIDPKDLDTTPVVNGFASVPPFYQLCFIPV
< 4.60

* * *

Assay: Cmax in Sprague-Dawley rat at 5 mg/kg, iv
Type: ADME, organism-based
Set-up: dose 5 mg/kg, route intravenous
Settings: in vivo
Could you label it T if measured Cmax is 6000 ng/mL or higher, and F otherwise?

Say whether O=c1c2c(CN3CCCC3)n(CCc3ccccn3)c(=O)cc2[nH]n1-c1ccc(F)cc1Cl shows Cmax of 6000 ng/mL or more.
T

Say whether Cc1c2c(=O)n(-c3ccccc3Cl)[nH]c2cc(=O)n1Cc1ccccn1 shows Cmax of 6000 ng/mL or more.
T

Say whether O=c1c2c(COCc3ccccc3)n(Cc3cnccn3)c(=O)cc2[nH]n1-c1ccccc1Cl shows Cmax of 6000 ng/mL or more.
T

Say whether COCCn1c(COc2ccc(F)cc2)c2c(=O)n(CCN3CCOCC3)[nH]c2cc1=O shows Cmax of 6000 ng/mL or more.
F

Say whether Cn1c(COc2ccc(F)cc2)c2c(=O)n(-c3ccccc3Cl)[nH]c2cc1=O shows Cmax of 6000 ng/mL or more.
T

* * *

Test: Volume of distribution at steady state in Sprague-Dawley rat at 5 mg/kg, iv
Assay type: ADME, organism-based
Parameters: dose 5 mg/kg, route intravenous
Conditions: in vivo, read-out: Vdss
Could you label it Yes if measured Vd is 1 L/kg or higher, and No otherwise?

Say whether O=c1c2c(CN3CCCC3)n(CCc3ccccn3)c(=O)cc2[nH]n1-c1ccc(F)cc1Cl shows Vd of 1 L/kg or more.
Yes

Say whether Cc1c2c(=O)n(-c3ccccc3Cl)[nH]c2cc(=O)n1Cc1ccccn1 shows Vd of 1 L/kg or more.
Yes

Say whether O=c1c2c(COCc3ccccc3)n(Cc3cnccn3)c(=O)cc2[nH]n1-c1ccccc1Cl shows Vd of 1 L/kg or more.
No

Say whether COCCn1c(COc2ccc(F)cc2)c2c(=O)n(CCN3CCOCC3)[nH]c2cc1=O shows Vd of 1 L/kg or more.
Yes

Say whether Cn1c(COc2ccc(F)cc2)c2c(=O)n(-c3ccccc3Cl)[nH]c2cc1=O shows Vd of 1 L/kg or more.
No

* * *

Target: NADPH oxidase 4 (Homo sapiens, UniProt Q9NPH5)
Sequence (Q9NPH5 whole entry): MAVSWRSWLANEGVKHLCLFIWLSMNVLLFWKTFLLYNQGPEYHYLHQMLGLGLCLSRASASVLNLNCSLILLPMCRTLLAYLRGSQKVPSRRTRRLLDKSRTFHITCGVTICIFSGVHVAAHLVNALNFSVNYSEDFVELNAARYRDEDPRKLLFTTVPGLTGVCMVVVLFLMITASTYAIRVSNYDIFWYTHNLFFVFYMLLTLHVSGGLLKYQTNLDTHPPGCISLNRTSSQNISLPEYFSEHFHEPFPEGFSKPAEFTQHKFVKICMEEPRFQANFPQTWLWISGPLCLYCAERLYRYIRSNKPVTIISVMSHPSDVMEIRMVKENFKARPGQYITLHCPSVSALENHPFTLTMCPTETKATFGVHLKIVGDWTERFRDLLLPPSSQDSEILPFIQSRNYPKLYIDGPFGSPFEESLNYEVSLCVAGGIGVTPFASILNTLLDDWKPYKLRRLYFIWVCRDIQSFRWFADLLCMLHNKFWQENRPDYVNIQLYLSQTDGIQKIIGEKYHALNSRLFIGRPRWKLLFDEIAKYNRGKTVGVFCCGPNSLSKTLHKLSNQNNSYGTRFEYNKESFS
Assay: Inhibition of human NOX4 overexpressed in T-REx-293 cell membrane assessed as ROS production by cell free assay in presence of NADPH
Details: in the assay text read “T-REx-293 cell membrane” for “human PMN cell membrane”
Returns: string. Value is fulfilled if measured Ki is below 300 nM, and not fulfilled if it is greater than or equal to it.

Consider CC(=O)n1c2cc(=O)n(Cc3cccnc3)c(C)c2c(=O)n1-c1ccccc1 . Does its Ki lie strictly below 300 nM?
not fulfilled

Consider CC(=O)Nc1cccc(-n2[nH]c3cc(=O)n(C)c(C)c3c2=O)c1 . Does its Ki lie strictly below 300 nM?
not fulfilled

Consider Cc1c2c(=O)n(CCN3CCOCC3)[nH]c2cc(=O)n1Cc1ccccn1 . Does its Ki lie strictly below 300 nM?
not fulfilled

Consider Cc1c2c(=O)n(-c3ccccc3Cl)[nH]c2cc(=O)n1CCN(C)C . Does its Ki lie strictly below 300 nM?
fulfilled

Consider Cc1c2c(=O)n(-c3nc4ccccc4s3)n(Cc3ccccc3)c2cc(=O)n1CC1CCCO1 (stereo not given) . Does its Ki lie strictly below 300 nM?
not fulfilled

Consider Cc1c2c(=O)n(-c3ccccc3Cl)[nH]c2cc(=O)n1NC(=O)COc1ccc(F)cc1 . Does its Ki lie strictly below 300 nM?
fulfilled

Consider Cc1c2c(=O)n(-c3ccccc3Cl)[nH]c2cc(=O)n1CC1CCCCC1 . Does its Ki lie strictly below 300 nM?
not fulfilled

Consider Cc1c2c(=O)n(-c3ccccc3Cl)[nH]c2cc(=O)n1CC#Cc1ccccc1 . Does its Ki lie strictly below 300 nM?
fulfilled

Consider COCCn1c(COc2ccc(F)cc2)c2c(=O)n(CCN3CCOCC3)[nH]c2cc1=O . Does its Ki lie strictly below 300 nM?
fulfilled

* * *

Could you please report measured AUC(0-inf) for the items listed next?
Experiment: AUC (infinity) in Sprague-Dawley rat at 5 mg/kg, iv
Format: ADME, organism-based
Design: time infinity, dose 5 mg/kg, route intravenous
Details: plasma
# unit: ng·h/mL | format: bare number

Entry O=c1c2c(CN3CCCC3)n(CCc3ccccn3)c(=O)cc2[nH]n1-c1ccc(F)cc1Cl has what AUC(0-inf)?
3130

Entry O=c1c2c(COCc3ccccc3)n(Cc3cnccn3)c(=O)cc2[nH]n1-c1ccccc1Cl has what AUC(0-inf)?
15400

Entry Cc1c2c(=O)n(-c3ccccc3Cl)[nH]c2cc(=O)n1Cc1ccccn1 has what AUC(0-inf)?
11000

Entry Cn1c(COc2ccc(F)cc2)c2c(=O)n(-c3ccccc3Cl)[nH]c2cc1=O has what AUC(0-inf)?
6530

Entry COCCn1c(COc2ccc(F)cc2)c2c(=O)n(CCN3CCOCC3)[nH]c2cc1=O has what AUC(0-inf)?
822

* * *

Molecular target: MAO-B (Homo sapiens)
Sequence (P27338 whole entry): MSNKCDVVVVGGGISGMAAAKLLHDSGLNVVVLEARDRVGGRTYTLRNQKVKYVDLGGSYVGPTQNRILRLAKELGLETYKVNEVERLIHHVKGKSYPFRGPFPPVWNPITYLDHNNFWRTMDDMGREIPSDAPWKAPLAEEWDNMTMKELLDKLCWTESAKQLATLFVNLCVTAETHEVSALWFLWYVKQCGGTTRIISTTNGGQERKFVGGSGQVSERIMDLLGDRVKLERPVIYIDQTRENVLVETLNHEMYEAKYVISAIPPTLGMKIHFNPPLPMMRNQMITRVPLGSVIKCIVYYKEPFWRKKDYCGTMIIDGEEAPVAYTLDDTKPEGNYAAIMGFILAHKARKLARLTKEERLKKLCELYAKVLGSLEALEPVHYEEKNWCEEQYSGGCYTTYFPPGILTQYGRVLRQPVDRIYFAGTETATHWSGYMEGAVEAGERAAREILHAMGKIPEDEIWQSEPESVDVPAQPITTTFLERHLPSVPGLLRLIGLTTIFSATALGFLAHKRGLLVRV
Assay: Inhibition of MAO-B at 10 uM
measurement kind: inhibition at 10 µM (%)
# unit: % | format: bare number

Entry Cc1c2c(=O)n(-c3ccccc3Cl)[nH]c2cc(=O)n1Cc1ccccn1 has what inhibition at 10 µM?
0

* * *

Experiment: Tmax in Sprague-Dawley rat at 10 mg/kg, po
Format: ADME, organism-based
Set-up: dose 10 mg/kg, route oral
Conditions: in vivo
Could you please report measured Tmax for the items listed next?
# unit: min | format: bare number

Entry Cc1c2c(=O)n(-c3ccccc3)[nH]c2cc(=O)n1Cc1cccnc1 has what Tmax?
15

Entry O=c1c2c(COCc3ccccc3)n(Cc3cnccn3)c(=O)cc2[nH]n1-c1ccccc1Cl has what Tmax?
15

Entry COCCn1c(COc2ccc(F)cc2)c2c(=O)n(CCN3CCOCC3)[nH]c2cc1=O has what Tmax?
15

Entry Cn1c(COc2ccc(F)cc2)c2c(=O)n(-c3ccccc3Cl)[nH]c2cc1=O has what Tmax?
70.2

Entry Cc1c2c(=O)n(-c3ccccc3Cl)[nH]c2cc(=O)n1Cc1ccccn1 has what Tmax?
90

Entry O=c1c2c(CN3CCCC3)n(CCc3ccccn3)c(=O)cc2[nH]n1-c1ccc(F)cc1Cl has what Tmax?
19.8
